- Target: ZFP SBS#397 (synthetic)
- Sequence (chain, as listed by the source): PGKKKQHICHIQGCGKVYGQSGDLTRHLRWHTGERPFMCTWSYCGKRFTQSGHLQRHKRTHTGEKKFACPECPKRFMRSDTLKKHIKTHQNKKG
- Test protocol: EMSA
- Test context: tags: MBP fusion
Measurement type: Kd (nM)
Give bare numbers, in nM.

Inquiry: Which Kd is listed for GCGGGAGCAG (dsDNA) DNA 1: GCGGGAGCAG DNA 2: CTGCTCCCGC ?
Reply text: 25

# credit: patent US20030068675
